Tested System: human ACSS1 protein (Homo sapiens, UniProt Q9NUB1)
Construct: purchased MyBioSource
Sequence (Q9NUB1 38-689): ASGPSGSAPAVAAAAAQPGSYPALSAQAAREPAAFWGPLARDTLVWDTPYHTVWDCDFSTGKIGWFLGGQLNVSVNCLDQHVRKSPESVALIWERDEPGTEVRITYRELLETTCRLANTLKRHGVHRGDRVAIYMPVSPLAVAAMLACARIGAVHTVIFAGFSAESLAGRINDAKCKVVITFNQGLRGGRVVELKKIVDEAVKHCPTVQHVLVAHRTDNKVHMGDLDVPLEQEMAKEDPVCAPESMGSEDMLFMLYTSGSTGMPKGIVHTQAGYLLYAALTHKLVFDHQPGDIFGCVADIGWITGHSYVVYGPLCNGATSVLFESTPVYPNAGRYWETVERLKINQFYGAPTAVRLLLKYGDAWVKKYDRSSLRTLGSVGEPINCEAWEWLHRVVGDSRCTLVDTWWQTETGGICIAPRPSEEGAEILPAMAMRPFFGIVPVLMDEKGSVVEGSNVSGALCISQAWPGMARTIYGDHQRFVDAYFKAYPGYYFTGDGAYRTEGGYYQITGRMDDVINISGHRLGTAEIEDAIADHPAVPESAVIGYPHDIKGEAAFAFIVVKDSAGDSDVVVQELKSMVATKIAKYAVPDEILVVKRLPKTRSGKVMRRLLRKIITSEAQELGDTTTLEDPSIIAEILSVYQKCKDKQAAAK
Measurement Description: ACSS1 cell-free activity assay (pyrophosphatase-coupled, Biomol green)
Type: biochemical
Run Parameters: 5 nM human ACSS1, 30 minutes at room temperature, absorbance at 620 nm
Result Type: ACSS1 Biochemical IC50 (nM)

INSERT INTO assay_data (compound, test_value) VALUES
  ('CCC(F)(F)c1cccc(NC(=O)c2c(C)n(COP(=O)(O)OC(C)(C)C)c(-c3ccc(OC)c(-c4c(C)cccc4C)c3)[n+]2[O-])c1', 'Inactive'),
  ('Cc1cccc(C)c1-c1cc(-c2ccccc2)cc(-c2[nH]c(C)c(C(=O)Nc3cccc(C(F)(F)C4CC4)c3)[n+]2[O-])c1', 'Inactive'),
  ('CCC(F)(F)c1cccc(NC(=O)c2c(C)[nH]c(-c3ccc(OC)c(-c4c(C)cccc4C)n3)[n+]2[O-])c1', 'Inactive');
